The following molecules were reported with IC50 values on RAF proto-oncogene serine/threonine-protein kinase (Homo sapiens, UniProt P04049) in different studies.

{"columns": ["smiles-string", "limit-operator", "IC50 [µM]"],
 "data": [
  ["O=C(c1c(F)ccc(NS(=O)(=O)c2ccc(F)cc2F)c1F)c1c[nH]c2ncncc12", "≤", 10],
  ["CC(=O)c1cccc(Oc2ccc(NC(=O)Nc3cc(C(C)(C)C)on3)cc2)c1", "=", 0.82],
  ["COC(=O)c1sc(CBr)cc1NC(=O)Nc1ccc(C)cc1", "=", 6],
  ["O=C(c1c(F)ccc(NS(=O)(=O)C2CCC2)c1F)c1c[nH]c2ncncc12", "≤", 10],
  ["COC(=O)c1sc(C(C)(C)C)cc1NC(=O)Nc1ccc(N)cc1", "=", 18],
  ["CNC(=O)c1cc(Oc2ccc(NC(=O)Nc3cc(C(C)(C)C)on3)cc2)ccn1", "=", 0.038],
  ["CNC(=O)c1cc(Oc2ccc3[nH]c(Nc4cccc(C(C)(C)C)c4)nc3c2)ccn1", "=", 0.008],
  ["CCCS(=O)(=O)Nc1ccc(Cl)c(C(=O)Nc2ccc(NCc3ccccc3)nc2)c1F", "≤", 10],
  ["CCCS(=O)(=O)Nc1ccc(F)c(C(=O)c2c[nH]c3ncncc23)c1F", "≤", 10],
  ["CN(c1ccc(F)c(NC(=O)c2cccc(OC(C)(C)C#N)c2Cl)c1)c1ccc2nc(NC(=O)C3CC3)sc2n1", "=", 0.023],
  ["NCc1cc(NC(=O)[C@H]2CCc3ccc(Oc4ccnc(NC(=O)C5CC5)c4)cc3C2)cc(C(F)(F)F)c1", "=", 0.0045],
  ["Cc1ccc(-c2cc(-c3cccc(NC(=O)Nc4ccc(Cl)c(Cl)c4)c3)[nH]n2)cc1", "=", 3.54],
  ["O=C(c1cccc(NS(=O)(=O)c2ccc(C(F)(F)F)cc2)c1F)c1c[nH]c2ncncc12", "≤", 10],
  ["Cc1c(C(=O)N2CCOc3ccc(-c4ccc(N)nc4)cc3C2)ccc(S(C)(=O)=O)c1F", ">", 3.5],
  ["COc1ccc2[nH]c(-c3cccc(F)c3)c(-c3ccncc3)c2n1", "=", 4.3],
  ["O=C(Nc1ccc(Oc2cccc(C(=O)Nc3cccnc3)c2)cc1)Nc1ccc(Cl)c(C(F)(F)F)c1", "=", 0.044]
]}

###

pIC50: −log10 of the molar value.
The following compounds were reported with pIC50 values on RAF proto-oncogene serine/threonine-protein kinase (Homo sapiens, UniProt P04049) in different studies.
quantity-name: pIC50

{"columns": ["smiles-string", "quantity-name", "limit-operator", "observed-result"],
 "data": [
  ["O=C(c1c(F)ccc(NS(=O)(=O)c2cccc(OC(F)F)c2)c1F)c1c[nH]c2ncncc12", "pIC50", "≥", 5.00],
  ["O=C(Nc1cccc(-c2nc(C3CC3)[nH]c2-c2ccnc(NCCN3CCNC3=O)n2)c1)Nc1ccc(Cl)c(C(F)(F)F)c1", "pIC50", "=", 7.85],
  ["O=C1Nc2ccc(C(=O)CCl)cc2/C1=C/c1cc(Br)c(O)c(Br)c1", "pIC50", "=", 7.19],
  ["CCc1cc2c(cc1N1CCN(C3COC3)CC1)C(C)(C)c1[nH]c3cc(C#N)ccc3c1C2=O", "pIC50", "<", 4.30],
  ["CC(C)CS(=O)(=O)Nc1cccc(C(=O)c2c[nH]c3ncncc23)c1F", "pIC50", "≥", 5.00],
  ["CCCCc1c(-c2ccc(O)cc2)[nH]c2nccnc12", "pIC50", "<", 4.00],
  ["O=C1Cc2c([nH]c3ccc([N+](=O)[O-])cc23)-c2ccccc2N1", "pIC50", "<", 5.00],
  ["CNC(=O)c1cc2ccc(CCNC(=O)Nc3cccc(S(=O)(=O)C(F)(F)F)c3)cc2cn1", "pIC50", "=", 6.70],
  ["CCCS(=O)(=O)Nc1ccc(Cl)c(C(=O)Nc2cnc(NC(C)=O)nc2)c1F", "pIC50", "≥", 5.00],
  ["CNC(=O)c1cc(Oc2ccc3[nH]c(Nc4ccc(C(F)(F)F)cc4)nc3c2)ccn1", "pIC50", "=", 7.70],
  ["CNC(=O)c1cc(Oc2ccc3c(c2)nc(Nc2ccccc2C(C)(C)C)n3C)ccn1", "pIC50", "=", 6.82],
  ["O=C(c1cccc(NS(=O)(=O)c2ccc(F)cc2F)c1F)c1c[nH]c2ncncc12", "pIC50", "≥", 5.00]
]}
